system: NCI-H460 lung; assay: NCI tumour cell line growth inhibition, 48 h
QUANTITY_NAME: TGI

1. COc1ccc(C2NC(=S)NC3=C2CCOc2c3ccc3ccccc23)cc1 (stereo not drawn)
> 100 µM
2. COc1ccc(CCn2cncn2)cc1
> 100 µM
3. CN1CC[C@H](c2c(O)cc(O)c3c(=O)cc(-c4ccccc4Cl)oc23)[C@H](O)C1
> 10 µM

* * *

Quick list: log10(TGI) per entry.
test system: LOX IMVI melanoma; experiment: NCI tumour cell line growth inhibition, 48 h
QUANTITY_NAME: log10(TGI) (log10 of the value in µM)

1. CC(Cn1c2c(c3cc(O)ccc31)CCc1ccc(O)cc1-2)N(C)C (stereo not given)
1.91
2. O=C(O)c1ccccc1NCn1c(=S)sc2ccccc21
1.64
3. CCCCCCCCCCCCCCCC[n+]1ccccc1
0.04
4. O=[N+]1[C@H](c2ccccc2)[C@H](c2ccccc2)N1[O-]
1.47
5. CCOC(=O)c1c(CN2CCN(C)CC2)nc2ccc(Cl)cc2c1-c1ccccc1
1.21
6. COc1cc(/C=C2\SC(N3CCCCC3)=NC2=O)ccc1OCCCCCCOc1ccc(/C=C2\SC(N3CCCCC3)=NC2=O)cc1OC
1.55
7. COc1cc(-c2nn(-c3cccc(NC(=O)CCN4CCN(c5ccccc5)CC4)c3)cc2-c2ccncc2)ccc1Cl
0.74
8. CC(C)[Si]1(C(C)C)OCC2OC(n3ccc(=O)[nH]c3=O)C([Se]c3ccccc3)C2O[Si](C(C)C)(C(C)C)O1 (stereo not given)
0.39

* * *

tested on: SNB-19 CNS; assay: NCI tumour cell line growth inhibition, 48 h; in the data active means GI50 below about 0.43 µM; inactive means the rest
Possible outcomes: T = active, F = inactive

1. C=C1C[C@@H]2O[C@H]3[C@H]4[C@@H](CC[C@@](C)(OC(=O)CCC)[C@H]42)[C@@H](C)C(=O)O[C@@]3(C)CC[C@H]1OO
F
2. COc1cccc(-c2nc3sccn3c2-c2ccnc(NCCCNS(=O)(=O)c3ccccc3)c2)c1
F
3. COc1cc2c3c(n(CCCNCCCNCCCN)c(=O)c2cc1OC)-c1cc2c(cc1C3=O)OCO2
F
4. CC(C)OP(=O)(O)c1ncc(-c2ccc(C(F)(F)F)cc2)c(NC2CCCCCC2)n1
F
5. COc1ccc(-c2c(N)noc2-c2cc(OC)c3c(c2)OCCO3)cc1
T
6. CCOC1Oc2ccc(C)cc2C(=O)/C1=C\Nc1ccc(S(N)(=O)=O)cc1 (centres undefined)
F
7. CC1(C)C2CCC13C(=O)C1OC3(C2)C2C(=O)c3c(ccc4c3ccc3ccccc34)C(=O)C12 (centres undefined)
F
8. C[As](C)SC1OCC(O)C(O)C1O (centres undefined)
F
9. COc1cc(-c2nn(-c3cccc(NC(=O)CCN4CCN(c5ccccc5)CC4)c3)cc2-c2ccncc2)ccc1Cl
F
10. OCC(O)C(O)C(O)C(O)c1nnc2c(-c3ccccc3)nc3ccccc3n12 (centres undefined)
F
11. C#C[C@]1(O)CC[C@H]2[C@@H]3CC=C4c5nc(N)sc5CC[C@]4(C)[C@H]3CC[C@@]21C
F
12. CCn1c(-c2nonc2N)nc2cnc(Oc3cccc(NC(=O)c4ccc(N(C)C)cc4)c3)cc21
F
13. NC(=O)/C(=C/n1cnc(-c2cc(C(F)(F)F)cc(C(F)(F)F)c2)n1)c1cncnc1
F
14. COc1cc(/C=C2\SC(N3CCCCC3)=NC2=O)ccc1OCCCCCCOc1ccc(/C=C2\SC(N3CCCCC3)=NC2=O)cc1OC
F
